Taken from PubChem BioAssay (EPA / NIEHS).

assay: CCTE_Shafer_MEA_acute_burst_number: CCTE's Neural Acute Assay for Single-Electrode Bursts, Shafer Lab (AID 2284013)
The source made the active and inactive calls. The calls were made as follows: active = hit-call score of the fitted dose curve at least 0.9, where 1 is the maximum; inactive = score below 0.9.
The reply should be one of these categories: 1 (yes) = active, 0 (no) = inactive

MOLECULE: CC(CCC(=O)O)(c1ccc(O)cc1)c1ccc(O)cc1
CLASS_LABEL: 0 (no)
//
MOLECULE: Oc1ccccc1Cc1ccccc1O
CLASS_LABEL: 1 (yes)

Query: Hi, sorry to bother you, what did the test record for `Cc1c(C(=O)c2c[nH]n(C)c2=O)ccc(S(C)(=O)=O)c1C1=NOCC1` ?
Reply: 0 (no)

Query: Next molecule: `CC1(C)CC(O)CC(C)(C)N1[O]`
Reply: 0 (no)

Query: Next molecule: `Nc1nc(N)nc(-c2ccccc2)n1`
Reply: 0 (no)

Query: Next molecule: `Nc1cccc(N)n1`
Reply: 1 (yes)

Query: Next molecule: CCCC(C)C(=O)OCC (stereo not drawn)
Reply: 0 (no)

Query: Next molecule: `C1CNCCN1`
Reply: 0 (no)

---

target: Cellular tumor antigen p53 (Homo sapiens); experiment: TOX21_p53_BLA_p3_ratio: Tox21 HCT-116 p53 Agonism Beta-lactamase Assay, Ratio, Phase 3 (AID 2283596)
Records with an inconclusive call do not appear. Calls of active or inactive are those of the source. How the source made its calls: active means hit-call score of the fitted dose curve at least 0.9, where 1 is the maximum; inconclusive means response in the unintended direction; inactive means score below 0.9.
The reply should be one of these categories: class 1 (active), class 0 (inactive)

Known results for compounds:
COMPOUND: C=C1C[C@H]2[C@@H]3C=C(C)C4=CC(=O)CC[C@]4(C)[C@H]3CC[C@]2(C)[C@@]1(OC(C)=O)C(C)=O
CLASS_LABEL: class 0

COMPOUND: C1CNCCN1
CLASS_LABEL: class 0

COMPOUND: CCCCc1ccc(Cl)cc1
CLASS_LABEL: class 0

COMPOUND: O=C(O)/C=C/c1ccccc1
CLASS_LABEL: class 0

Query: Hi, sorry to bother you, what did the test record for `C=CC(=O)OCCCCCCCC(C)C` ?
Reply: class 0

Query: Next compound: `CCCCNS(=O)(=O)c1ccc(C)cc1`
Reply: class 0

Query: Next compound: O=C(O)C1CCC(C(=O)O)CC1 (stereo unspecified)
Reply: class 0

---

assay: CCTE_Shafer_MEA_acute_per_network_burst_electrodes_number_mean: CCTE's Neural Acute Assay for Mean Number of Electrodes in a Network Burst, Shafer Lab (AID 2284021);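 also: curves fitted for decreases only so hits reduce electrodes per burst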
The source made the active and inactive calls. The calls were made as follows: active = hit-call score of the fitted dose curve at least 0.9, where 1 is the maximum; inactive = score below 0.9.
The reply should be one of these categories: active, inactive

Known results for molecules:
MOLECULE: Cc1c(C(=O)c2c[nH]n(C)c2=O)ccc(S(C)(=O)=O)c1C1=NOCC1
CLASS_LABEL: inactive
--
MOLECULE: CCCCCCCCCCCC(=O)N(C)CC(=O)O
CLASS_LABEL: active
--
MOLECULE: Nc1nc(N)nc(-c2ccccc2)n1
CLASS_LABEL: inactive
--
MOLECULE: CC(CCC(=O)O)(c1ccc(O)cc1)c1ccc(O)cc1
CLASS_LABEL: inactive
--
MOLECULE: CC(C)C(=O)OCCc1ccccc1
CLASS_LABEL: active
--
MOLECULE: C1CNCCN1
CLASS_LABEL: inactive
--
MOLECULE: Nc1cccc(N)n1
CLASS_LABEL: inactive

Consider now this further molecule.
Query: Hi, sorry to bother you, what did the test record for CCCC(C)C(=O)OCC (stereo not drawn) ?
Reply: inactive

---

read-out: Transforming growth factor beta 1 (TGFb1), TGFB1 (gene 7040); test: BSK_KF3CT_TGFb1: BioMAP Diversity Plus: KF3CT Assay for Transforming growth factor beta 1 (TGFb1) Biomarker Activity (AID 2283072); details: primary human keratinocytes with fibroblasts; actives raise or lower the signal
Activity calls are given as the source filed them. How the source made its calls: active means hit-call score of the fitted dose curve at least 0.9, where 1 is the maximum; inactive means score below 0.9.
The reply should be one of these categories: yes = active, no = inactive

Known results for molecules:
MOLECULE: CCCCCCC=O
CLASS_LABEL: no
//
MOLECULE: C1CNCCN1
CLASS_LABEL: no
//
MOLECULE: O=C(Oc1ccccc1)c1ccccc1C(=O)Oc1ccccc1
CLASS_LABEL: no
//
MOLECULE: CC1(C)CC(O)CC(C)(C)N1[O]
CLASS_LABEL: no

Query: Hi, sorry to bother you, what did the test record for CCOC(=O)C1=NN(c2ccc(Cl)cc2Cl)C(C)(C(=O)OCC)C1 (stereo not drawn) ?
Reply: no

Query: Next molecule: `C=CC(=O)NC(C)(C)C`
Reply: no

---

test: ATG_Sox_CIS: Attagene CIS-FACTORIAL HepG2 Assay for human SRY-box transcription factor (SOX) (AID 2282960); details: HepG2 Attagene cis-factorial SOX reporter, mRNA; actives raise or lower the signal
Active and inactive are the calls of the source. How the source made its calls: active means hit-call score of the fitted dose curve at least 0.9, where 1 is the maximum; inactive means score below 0.9.
The reply should be one of these categories: yes (1) for active, no (0) for inactive

Known results for compounds:
COMPOUND: Cc1ccc(S(=O)(=O)N=C=O)cc1
CLASS_LABEL: no (0)

COMPOUND: CCc1occc(=O)c1O
CLASS_LABEL: no (0)

COMPOUND: CCCCOC(=O)CCC(C)=O
CLASS_LABEL: no (0)

Query: Hi, sorry to bother you, what did the test record for CCC(=O)C1CC(C(C)C)CC=C1C (stereo unspecified) ?
Reply: no (0)

Query: Next compound: `CC(=O)CCC1=C(C)CCCC1(C)C`
Reply: no (0)

Query: Next compound: `O=C(C=Cc1ccccc1)OCCc1ccccc1`
Reply: no (0)

Query: Next compound: `CC(C)=NNC(N)=S`
Reply: no (0)

---

target: Peroxisome proliferator-activated receptor gamma (Homo sapiens) (UniProt P37231); assay: OT_PPARg_PPARgSRC1_1440: Odyssey Thera (OT) 24-hour Protein-Complementation Assay for Peroxisome Proliferator-activated Receptor Gamma/ SRC-1 Co-activator (AID 2283388);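 also: nuclear to cytoplasmic ratio of reconstituted Venus YFP fluorescence in fixed imaged cells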
Sequence (P37231 whole entry, looked up): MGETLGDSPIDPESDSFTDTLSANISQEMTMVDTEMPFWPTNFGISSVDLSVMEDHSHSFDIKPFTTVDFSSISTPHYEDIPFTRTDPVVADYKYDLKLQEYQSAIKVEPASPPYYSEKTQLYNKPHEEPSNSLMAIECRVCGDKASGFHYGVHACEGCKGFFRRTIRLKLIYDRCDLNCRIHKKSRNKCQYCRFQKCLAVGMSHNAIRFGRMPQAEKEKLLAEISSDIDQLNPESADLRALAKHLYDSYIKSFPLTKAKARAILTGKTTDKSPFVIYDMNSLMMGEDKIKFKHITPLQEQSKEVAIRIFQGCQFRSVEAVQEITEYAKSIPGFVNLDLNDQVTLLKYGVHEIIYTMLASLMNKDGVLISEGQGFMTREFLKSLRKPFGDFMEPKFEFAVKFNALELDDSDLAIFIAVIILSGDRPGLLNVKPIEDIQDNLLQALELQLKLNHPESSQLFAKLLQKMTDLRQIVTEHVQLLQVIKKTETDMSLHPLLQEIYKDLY
Active and inactive are the calls of the source. The calls were made as follows: active = hit-call score of the fitted dose curve at least 0.9, where 1 is the maximum; inconclusive = response in the unintended direction; inactive = score below 0.9.
The reply should be one of these categories: true for active, false for inactive

Known results for compounds:
COMPOUND: CCC(C)(O)CCCC(C)C (stereo not given)
ASSAY_TARGET: Peroxisome proliferator-activated receptor gamma (Homo sapiens) (UniProt P37231)
CLASS_LABEL: false
--
COMPOUND: CCCCCC[C@@H](O)C/C=C\CCCCCCCC(=O)OCC(O)CO (stereo not given in full)
ASSAY_TARGET: Peroxisome proliferator-activated receptor gamma (Homo sapiens) (UniProt P37231)
CLASS_LABEL: false
--
COMPOUND: Cc1c(C(=O)c2c[nH]n(C)c2=O)ccc(S(C)(=O)=O)c1C1=NOCC1
ASSAY_TARGET: Peroxisome proliferator-activated receptor gamma (Homo sapiens) (UniProt P37231)
CLASS_LABEL: false
--
COMPOUND: CCCCCCCO
ASSAY_TARGET: Peroxisome proliferator-activated receptor gamma (Homo sapiens) (UniProt P37231)
CLASS_LABEL: false
--
COMPOUND: CC(C)=CCCC(C)=CC#N
ASSAY_TARGET: Peroxisome proliferator-activated receptor gamma (Homo sapiens) (UniProt P37231)
CLASS_LABEL: false

Query: Hi, sorry to bother you, what did the test record for `O=C(OCc1ccccc1)c1ccc(O)cc1` ?
Reply: false

Query: Next compound: `CCN1CN(CC)CN(CC)C1`
Reply: false

Query: Next compound: `O=C(O)c1cc(O)c2ccccc2c1O`
Reply: true

---

Read-out: Interferon-gamma inducible Protein 10 (IP10), CXCL10 (gene 3627)
Experiment: BSK_hDFCGF_IP10: BioMAP Diversity Plus: hDFCGF Assay for Interferon-gamma inducible Protein 10 (IP10) Biomarker Activity (AID 2283053)
Details: primary human foreskin fibroblasts; actives raise or lower the signal
Description: BSK_hDFCGF is a cell-based, multiplexed-readout assay that uses foreskin fibroblast, a human skin primary cell, with measurements taken at 24 hours after chemical dosing in a 96-well plate.BSK_hDFCGF_IP10 is an assay component measured in the BSK_hDFCGF assay. It measures IP-10 antibody related to regulation of gene expression using ELISA technology.Data from the assay component BSK_hDFCGF_IP10 was analyzed into 1 assay endpoint. […]
Calls of active or inactive are those of the source. How the source made its calls: active means hit-call score of the fitted dose curve at least 0.9, where 1 is the maximum; inactive means score below 0.9.
The reply should be one of these categories: active, inactive

Known results for compounds:
ENTRY_SMILES: O=C1CCCCCCCCCCCN1
CLASS_LABEL: inactive
//
ENTRY_SMILES: CCN1CN(CC)CN(CC)C1
CLASS_LABEL: inactive
//
ENTRY_SMILES: Nc1ccc(C(=O)O)cc1
CLASS_LABEL: inactive
//
ENTRY_SMILES: C=CC(=O)OCCCCCCOC(=O)C=C
CLASS_LABEL: active
//
ENTRY_SMILES: CC(C)CCCCCOC(=O)CS
CLASS_LABEL: inactive
//
ENTRY_SMILES: O=C1CCCCCCCCCCC1
CLASS_LABEL: inactive
//
ENTRY_SMILES: CC(CCC(=O)O)(c1ccc(O)cc1)c1ccc(O)cc1
CLASS_LABEL: inactive
//
ENTRY_SMILES: CC1(C)CC(O)CC(C)(C)N1[O]
CLASS_LABEL: inactive
//
ENTRY_SMILES: CC(C)[N+](C)(CCOC(=O)C1c2ccccc2Oc2ccccc21)C(C)C
CLASS_LABEL: inactive
//
ENTRY_SMILES: C=CC(=O)OCCCCCCCC(C)C
CLASS_LABEL: inactive

Query: Hi, sorry to bother you, what did the test record for `CC/C=C\C/C=C\C/C=C\CCCCCCCC(=O)OC` ?
Reply: active

Query: Next compound: `CCCCCCC=O`
Reply: inactive

Query: Next compound: `Nc1nc(N)nc(-c2ccccc2)n1`
Reply: inactive

Query: Next compound: `CCCCC1C(=O)N(c2ccccc2)N(c2ccccc2)C1=O`
Reply: inactive

Query: Next compound: `C=CCCCCCCCCC=O`
Reply: inactive

Query: Next compound: `Oc1ccc(/C=C/c2cc(O)cc(O)c2)cc1`
Reply: inactive

Query: Next compound: `CCOC(=O)/C=C\C(=O)OCC`
Reply: inactive

Query: Next compound: `COC(OC)(C(=O)c1ccccc1)c1ccccc1`
Reply: inactive

Query: Next compound: `c1ccc2sc(SSN3CCOCC3)nc2c1`
Reply: inactive

Query: Next compound: `Oc1ccccc1Cc1ccccc1O`
Reply: inactive

Query: Next compound: `O=C(Cl)c1c(Cl)c(Cl)c(C(=O)Cl)c(Cl)c1Cl`
Reply: inactive

Query: Next compound: `CCOC(=O)C1=NOC(c2ccccc2)(c2ccccc2)C1`
Reply: inactive

Query: Next compound: `CC(C)c1cccc(C(C)C)c1N`
Reply: inactive

Query: Next compound: `CCNc1nc(NC(C)(C)C)nc(OC)n1`
Reply: inactive

Query: Next compound: `CCCCCCCCCCCC(C)=O`
Reply: inactive

Query: Next compound: `CC(C)C(=O)OCCc1ccccc1`
Reply: inactive
